Biological target: human macrophage elastase (HME/hMMP-12) (Homo sapiens)
Construct: purchased R&D Systems 917-MP
Sequence (P39900 106-470): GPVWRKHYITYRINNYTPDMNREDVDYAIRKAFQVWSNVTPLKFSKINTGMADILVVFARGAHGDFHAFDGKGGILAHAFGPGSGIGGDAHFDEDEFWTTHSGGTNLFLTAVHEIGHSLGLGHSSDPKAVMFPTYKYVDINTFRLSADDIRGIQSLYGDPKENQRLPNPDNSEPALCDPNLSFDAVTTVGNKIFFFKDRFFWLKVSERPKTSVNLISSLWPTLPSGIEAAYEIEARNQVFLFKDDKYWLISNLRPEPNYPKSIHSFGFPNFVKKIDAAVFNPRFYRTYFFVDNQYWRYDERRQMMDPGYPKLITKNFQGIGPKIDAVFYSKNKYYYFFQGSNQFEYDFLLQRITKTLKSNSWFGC
Test: In vitro HME inhibition test (standard or high-sensitivity)
Assay type: biochemical
Settings: in some cases mean values, rounded to two significant figures
Protocol: The potency of the compounds according to the invention with respect to HME (MMP-12) is determined in an in vitro inhibition test. The HME-mediated amidolytic cleavage of a suitable peptide substrate leads to an increase in fluorescent light therein. The signal intensity of the fluorescent light is directly proportional to the enzyme activity. […]
pIC50: −log10 of the molar value.
measured.property: pIC50

[[record]]
compound = "O=C(CC(CCn1nnc2ccccc2c1=O)C(=O)O)c1cc2cc(OCC3CCCCC3)ccc2o1 (single isomer, unassigned; enantiomer 1) [Example 9]"
experimental_result = 6.43

[[record]]
compound = "O=C(CC(CCn1nnc2ccccc2c1=O)C(=O)O)c1noc2cc(OCCC3CCCC3)ccc12 (racemic)"
experimental_result = 9.57

[[record]]
compound = "CCCCCCCOc1ccc2c(C(=O)CC(CCn3nnc4ccccc4c3=O)C(=O)O)coc2c1 (single isomer, unassigned; (-)) [Example 102]"
experimental_result = 5.68

[[record]]
compound = "CCCCCOc1ccc2c(C(=O)CC(CCn3nnc4ccccc4c3=O)C(=O)O)coc2c1 (racemic) [Example 89]"
experimental_result = 9.46

[[record]]
compound = "O=C(CC(CCn1nnc2ccccc2c1=O)C(=O)O)c1cc2cc(OCCCc3cccs3)ccc2o1 (racemic)"
experimental_result = 8.72


1 = O=C(CC(CCn1nnc2ccccc2c1=O)C(=O)O)c1cc2cc(OCCCC(F)(F)F)ccc2o1 (single isomer, unassigned; enantiomer 2) [Example 13]
2 = O=C(CC(CCn1nnc2ccccc2c1=O)C(=O)O)c1noc2cc(OCCC3CCOCC3)ccc12 (racemic)
3 = CCCCCOc1ccc2c(C(=O)CC(CCn3nnc4ccccc4c3=O)C(=O)O)noc2c1 (racemic)
Give the ascending ranking of the items by reported pIC50. Arrange the labels as the request states and list them.
1, 2, 3

P = CC(C)CCOc1ccc2cc(C(=O)CC(CCn3nnc4ccccc4c3=O)C(=O)O)sc2c1 (racemic)
Q = O=C(CC(CCn1nnc2ccccc2c1=O)C(=O)O)c1coc2cc(OCC3CCCC3)ccc12 (single isomer, unassigned; (-)) [Example 79]
Lab note: record which item had the higher pIC50, P or Q . Identify your selection by its label.
P

a = CC(C)COc1ccc2c(C(=O)CC(CCn3nnc4ccccc4c3=O)C(=O)O)coc2c1 (racemic) [Example 104]
b = O=C(CC(CCn1nnc2ccccc2c1=O)C(=O)O)c1cc2ccc(OCCc3ccccc3)cc2o1 (racemic)
c = O=C(CC(CCn1nnc2ccc(C(F)(F)F)cc2c1=O)C(=O)O)c1noc2cc(OCC3CCOCC3)ccc12 (racemic)
d = CCCOc1ccc2c(C(=O)CC(CCn3nnc4ccccc4c3=O)C(=O)O)coc2c1 (single isomer, unassigned; (-)) [Example 87]
Please list these compounds in decreasing order of pIC50. Hello, could you send the labels back in the order asked? Thank you.
c, a, b, d
(c: 9.41, a: 8.96, b: 8.55, d: 6.33)

a = CCCOc1ccc2c(C(=O)CC(CCn3nnc4ccccc4c3=O)C(=O)O)coc2c1 (single isomer, unassigned; (+)) [Example 88]
b = N#CCCCCOc1ccc2oc(C(=O)CC(CCn3nnc4ccccc4c3=O)C(=O)O)cc2c1 (racemic)
Among a and b , which shows a numerically higher pIC50 result? Kindly give the label for the entry you pick.
a
(a: 8.96, b: 8.54)

====

Target: human macrophage elastase (HME/hMMP-12) (Homo sapiens)
Construct: purchased R&D Systems 917-MP
Test: In vitro HME inhibition test (standard or high-sensitivity)
Type: biochemical
Conditions: in some cases mean values, rounded to two significant figures
pIC50: −log10 of the molar value.
measured.property: pIC50

As a guide, the following entries are already answered.
[[record]]
molecule = "CS(=O)(=O)c1ccc(COc2ccc3oc(C(=O)CC(CCn4nnc5ccccc5c4=O)C(=O)O)cc3c2)cc1 (racemic) [Example 38]"
experimental_result = 9.14

[[record]]
molecule = "O=C(CC(CCn1nnc2ccccc2c1=O)C(=O)O)c1cc2cc(OCCCC(F)(F)F)ccc2o1 (racemic) [Example 11]"
experimental_result = 8.37

[[record]]
molecule = "Cc1ccccc1CCOc1ccc2oc(C(=O)CC(CCn3nnc4ccccc4c3=O)C(=O)O)cc2c1 (racemic) [Example 4]"
experimental_result = 8.37


P = Cc1cccc(COc2ccc3oc(C(=O)CC(CCn4nnc5ccccc5c4=O)C(=O)O)cc3c2)c1 (racemic) [Example 51]
Q = COc1ccc2cc(C(=O)CC(CCn3nnc4ccc(C(F)(F)F)cc4c3=O)C(=O)O)sc2c1 (racemic) [Example 131]
Out of P and Q , name the one with the higher pIC50. Please respond with the label that marks your chosen entry.
Q

====

Target: MMP-7 (Homo sapiens, UniProt P09237)
Sequence (P09237 95-267): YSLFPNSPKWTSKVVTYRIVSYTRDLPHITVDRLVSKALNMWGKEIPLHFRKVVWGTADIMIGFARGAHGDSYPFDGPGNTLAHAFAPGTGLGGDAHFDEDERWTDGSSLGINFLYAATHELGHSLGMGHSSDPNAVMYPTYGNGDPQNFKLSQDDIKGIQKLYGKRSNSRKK
pIC50: −log10 of the molar value.
measured.property: pIC50

Check out these entries, answers already filled in.
[[record]]
compound = "O=C(CC(CCn1nnc2ccccc2c1=O)C(=O)O)c1cc2cc(OCCC3CCCC3)ccc2o1 (racemic)"
experimental_result = "< 4.40"

[[record]]
compound = "O=C(CC(CCn1nnc2ccccc2c1=O)C(=O)O)c1cc2ccc(OCC3CC3)cc2s1 (racemic)"
experimental_result = 5.39

[[record]]
compound = "O=C(O)[C@H]1[C@H](Cn2nnc3ccc(C(F)(F)F)cc3c2=O)CC[C@@H]1C(=O)c1cc2cc(OCCc3ccccc3)ccc2o1 (racemic)"
experimental_result = 6.80

[[record]]
compound = "O=C(CC(CCn1nnc2ccccc2c1=O)C(=O)O)c1coc2cc(OCC3CCCCC3)ccc12 (single isomer, unassigned; (+))"
experimental_result = "< 4.40"

[[record]]
compound = "O=C(CC(CCn1nnc2ccccc2c1=O)C(=O)O)c1noc2cc(OCc3cccnc3)ccc12 (racemic)"
experimental_result = "< 4.40"


pIC50 of NC(=O)c1cccc(COc2ccc3oc(C(=O)CC(CCn4nnc5ccccc5c4=O)C(=O)O)cc3c2)c1 (single isomer, unassigned; (+)) on MMP-7 (Homo sapiens, UniProt P09237)?
4.60

Under MMP-7 (Homo sapiens, UniProt P09237): pIC50 value of O=C(CC(CCn1nnc2ccc(C(F)(F)F)cc2c1=O)C(=O)O)c1noc2cc(OCC3CCOCC3)ccc12 (racemic) ?
4.62

MMP-7 (Homo sapiens, UniProt P09237) / pIC50 / O=C(CC(CCn1nnc2ccccc2c1=O)C(=O)O)c1cc2cc(OCCC3CCOCC3)ccc2o1 (racemic) : value?
< 4.40

# returns recorded pIC50 (system: MMP-7 (Homo sapiens, UniProt P09237)) for CCCOc1ccc2cc(C(=O)CC(CCn3nnc4ccccc4c3=O)C(=O)O)oc2c1 (racemic)
< 4.40

Checklist item: pIC50 tested on MMP-7 (Homo sapiens, UniProt P09237), entry O=C(CC(CCn1nnc2ccccc2c1=O)C(=O)O)c1coc2cc(OCC3CCCC3)ccc12 (single isomer, unassigned; (+)) , value?
< 4.40

Query the reported pIC50 for MMP-7 (Homo sapiens, UniProt P09237); item: O=C(CC(CCn1nnc2ccccc2c1=O)C(=O)O)c1cc2cc(OCCc3ccccc3Cl)ccc2o1 (racemic)
< 4.40

Write down the reported pIC50 of O=C(CC(CCn1nnc2ccccc2c1=O)C(=O)O)c1coc2cc(OCCC3CCOCC3)ccc12 (racemic) , test system: MMP-7 (Homo sapiens, UniProt P09237).
< 4.40

Hello, I am looking for reported pIC50 with MMP-7 (Homo sapiens, UniProt P09237) for O=C(CC(CCn1nnc2ccccc2c1=O)C(=O)O)c1noc2cc(OCCc3ccccc3)ccc12 (racemic) . Could you help?
< 4.40

Given the entry O=C(CC(CCn1nnc2ccccc2c1=O)C(=O)O)c1cc2cc(OCc3ccc(F)cc3)ccc2o1 (single isomer, unassigned; (+)) , what pIC50 was observed with MMP-7 (Homo sapiens, UniProt P09237)?
< 4.40

====

Target: UniProt:P50281
pIC50: −log10 of the molar value.
measured.property: pIC50

[[record]]
compound = "CCCCCOc1ccc2c(C(=O)CC(CCn3nnc4ccccc4c3=O)C(=O)O)coc2c1 (single isomer, unassigned) [Example 91]"
experimental_result = 5.40

[[record]]
compound = "CCCCCOc1ccc2c(C(=O)CC(CCn3nnc4ccccc4c3=O)C(=O)O)coc2c1 (racemic) [Example 89]"
experimental_result = 4.89


1 = O=C(CC(CCn1nnc2ccccc2c1=O)C(=O)O)c1cc2cc(OCC3CCOCC3)ccc2o1 (racemic)
2 = O=C(CC(CCn1nnc2ccccc2c1=O)C(=O)O)c1cc2cc(OCCCC(F)(F)F)ccc2o1 (single isomer, unassigned; enantiomer 2)
3 = O=C(CC(CCn1nnc2ccccc2c1=O)C(=O)O)c1noc2cc(OCc3ccccc3)ccc12 (racemic)
Your job: order these 3 records by pIC50, ascending. Submit the labels in the order that the ranking request calls for.
1, 2, 3
(1: 4.47, 2: 4.77, 3: 5.40)
